target: HDAC2 (Homo sapiens); construct: purchased Enzo Life Sciences; assay: HDAC Inhibition Screening Assay (FLUOR DE LYS Fluorimetric Drug Discovery Kit), HDAC2; assay type: biochemical; settings: 50 μM compound
Parameter: inhibition at 50 µM

Incoming: Dear colleague, I am looking for the recorded inhibition at 50 µM of the following molecule: CCN(CC)c1ccc(C(=O)NC2CCc3cc(/C=C/C(=O)NCCCCCC(=O)Nc4ccc(F)cc4N)ccc32)cc1 (centres unmarked) [Compound 29]
Outgoing: 50 to 80%

Incoming: Param item: O=C(CCCCCCC(=O)Nc1ccc2c(c1)CCCC2=O)NO [Compound 1]
Outgoing: > 80%

Incoming: Then what about the molecule O=C(/C=C/c1ccc2c(c1)CCC2NCCc1cc(Cl)cc(Cl)c1)NO (centres unmarked) [Compound 55] ?
Outgoing: > 80%

Incoming: Same lookup for O=C(CCCCCCC(=O)Nc1ccc2c(c1)CC/C(=C\c1cc(C(F)(F)F)cc(C(F)(F)F)c1)C2=O)NO [Compound 4] , please.
Outgoing: > 80%

Incoming: Same for COc1ccc(CCNC2CCc3cc(/C=C/C(=O)Nc4ccc(F)cc4N)ccc32)cc1 (centres unmarked) [Compound 51]
Outgoing: > 80%

====

A collection of compounds and their measured inhibition at 50 µM
target: HDAC3 (Homo sapiens, UniProt O15379); construct: purchased Enzo Life Sciences; assay: HDAC Inhibition Screening Assay (FLUOR DE LYS Fluorimetric Drug Discovery Kit), HDAC3; type: biochemical; conditions: 50 μM compound
Sequence (O15379 whole entry): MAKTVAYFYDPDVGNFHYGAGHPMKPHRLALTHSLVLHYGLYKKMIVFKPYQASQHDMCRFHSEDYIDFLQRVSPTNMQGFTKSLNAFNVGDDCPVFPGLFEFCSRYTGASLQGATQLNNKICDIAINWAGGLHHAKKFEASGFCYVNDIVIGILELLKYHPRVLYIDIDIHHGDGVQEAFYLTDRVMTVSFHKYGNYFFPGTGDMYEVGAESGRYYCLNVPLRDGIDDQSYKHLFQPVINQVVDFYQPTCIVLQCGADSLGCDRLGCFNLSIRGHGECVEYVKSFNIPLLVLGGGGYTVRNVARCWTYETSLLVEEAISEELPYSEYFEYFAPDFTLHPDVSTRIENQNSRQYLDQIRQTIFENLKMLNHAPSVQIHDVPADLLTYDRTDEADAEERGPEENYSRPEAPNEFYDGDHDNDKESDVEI
Sequence (O75376 395-489 partner limits assumed): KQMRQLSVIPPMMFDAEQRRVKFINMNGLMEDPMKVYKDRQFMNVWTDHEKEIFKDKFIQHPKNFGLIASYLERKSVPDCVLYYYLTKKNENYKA

* CN(C)c1ccc(C(=O)NC2CCc3cc(/C=C/C(=O)NO)ccc32)cc1 (centres unmarked) [Compound 26] | > 80%
* Nc1cc(F)ccc1NC(=O)CCCCCCC(=O)Nc1ccc2c(c1)CCC(Cc1cc(C(F)(F)F)cc(C(F)(F)F)c1)C2=O (centres unmarked) [Compound 9] | < 50%
* COc1ccc2c(c1)CCC2NC(=O)CCCCCCC(=O)Nc1ccc(F)cc1N (centres unmarked) [Compound 43] | 50 to 80%

Incoming: // query inhibition at 50 µM value for entry O=C(/C=C/c1ccc2c(c1)CCCC2NC(=O)c1cc(C(F)(F)F)cc(C(F)(F)F)c1)NO (centres unmarked) [Compound 24]
Outgoing: < 50%

Incoming: And what about the compound O=C(CCCCCCC(=O)Nc1ccc2c(c1)CCC(Cc1cc(C(F)(F)F)cc(C(F)(F)F)c1)C2=O)NO (centres unmarked) [Compound 10] ?
Outgoing: > 80%

====

molecular target: HDAC2 (Homo sapiens, UniProt Q92769); construct: purchased Enzo Life Sciences; assay: HDAC Inhibition Screening Assay (FLUOR DE LYS Fluorimetric Drug Discovery Kit), HDAC2; format: biochemical; settings: 10 μM compound
Sequence (Q92769 whole entry): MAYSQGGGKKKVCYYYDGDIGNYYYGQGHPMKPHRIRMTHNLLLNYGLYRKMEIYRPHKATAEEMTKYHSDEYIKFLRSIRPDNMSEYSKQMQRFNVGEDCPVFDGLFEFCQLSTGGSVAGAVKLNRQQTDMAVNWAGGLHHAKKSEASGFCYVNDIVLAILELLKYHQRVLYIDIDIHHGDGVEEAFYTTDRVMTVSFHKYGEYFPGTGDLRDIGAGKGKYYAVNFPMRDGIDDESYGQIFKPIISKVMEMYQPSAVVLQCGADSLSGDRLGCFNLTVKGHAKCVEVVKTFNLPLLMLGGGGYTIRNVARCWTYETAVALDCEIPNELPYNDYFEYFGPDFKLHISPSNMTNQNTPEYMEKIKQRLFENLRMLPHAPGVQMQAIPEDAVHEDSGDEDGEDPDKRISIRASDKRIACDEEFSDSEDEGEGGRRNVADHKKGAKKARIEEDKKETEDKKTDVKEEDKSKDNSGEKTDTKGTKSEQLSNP
Documented inhibition at 10 µM across a set of compounds

Incoming: Hi! What's the reported inhibition at 10 µM for Nc1cc(F)ccc1NC(=O)/C=C/c1ccc(COc2ccc3c(c2)CCCC3=O)cc1 [Compound 69] on HDAC2 (Homo sapiens, UniProt Q92769)?
Outgoing: < 50%

Incoming: And the next one, O=C(/C=C/c1ccc2c(c1)CCC2NCCc1c[nH]c2ccccc12)NO (stereo not shown) [Compound 58] ?
Outgoing: > 80%

Incoming: Now consider Cc1[nH]c2ccccc2c1CCNC1CCCc2cc(/C=C/C(=O)NO)ccc21 (stereo not shown) [Compound 63] and answer again.
Outgoing: > 80%

Incoming: // next record O=C(/C=C/c1ccc2c(c1)CCC2NC(=O)c1ccc(F)cc1)NCCCCCC(=O)NO (stereo not shown) [Compound 32]
Outgoing: > 80%

Incoming: And what about the compound O=C(/C=C/c1ccc2c(c1)CCC2NC(=O)c1cc(C(F)(F)F)cc(C(F)(F)F)c1)NO (stereo not shown) [Compound 22] ?
Outgoing: > 80%

Incoming: Also need Nc1cc(F)ccc1NC(=O)CCCCCNC(=O)c1ccc2c(c1)CC/C(=C\c1cc(C(F)(F)F)cc(C(F)(F)F)c1)C2=O [Compound 78] , thanks.
Outgoing: < 50%

Incoming: What would you report for Nc1cc(F)ccc1NC(=O)CCCCC(=O)Nc1ccc2c(c1)CC/C(=C\c1cc(C(F)(F)F)cc(C(F)(F)F)c1)C2=O [Compound 13] ?
Outgoing: < 50%

Incoming: Try Nc1ccccc1NC(=O)c1ccc(COc2ccc3c(c2)CC/C(=C\c2cc(C(F)(F)F)cc(C(F)(F)F)c2)C3=O)cc1 [Compound 66] next.
Outgoing: < 50%

Incoming: // same read-out, input: O=C(/C=C/c1ccc2c(c1)CCC2NCc1cc(C(F)(F)F)cc(C(F)(F)F)c1)NO (stereo not shown) [Compound 33]
Outgoing: > 80%

Incoming: Please do the same for Nc1cc(F)ccc1NC(=O)/C=C/c1ccc2c(c1)CCC2NCCc1c[nH]c2ccccc12 (stereo not shown) [Compound 57] as well.
Outgoing: > 80%
